- Tested on: THRa homodimer (NR concentration 90 nM)
- Procedure details: PBM binding z-score (relative to random genomic background probes); higher = stronger binding; sequences stand for … in GC…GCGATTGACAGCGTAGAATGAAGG
Binary classification by PBM binding z-score, with -0.03 as an inclusive lower bound for label 1; all other cases are label 0.

CATAGCAGGCCAGGGTCACTCAAGCATTTCGCTT : label 1
TAGCCTAGGTGATGCGGGCCAGTATAGTGTCGGC : label 0
ATCGAAAGGTCGTAAGGTGAGTATACAGAAAGGC : label 1
CCGAGTAGGTTATGGGGAATTCAGGCAACGGTGA : label 1

Enquiry: Would you say `TCATATAGGTAAAAGGTGTAAGTCGGTGTGGTAA` shows PBM binding z-score at minimum -0.03?
Return: label 0

Enquiry: Is the recorded value of PBM binding z-score equal to or greater than -0.03 for this sequence? `AGTCAAAGATCAGGACGAGGTAACGTAAAGCACG`
Return: label 1

Enquiry: Test whether the sequence `TCTATTAGTTGATTAGGGCTACCGAAACAGCGGA` records PBM binding z-score of -0.03 or higher.
Return: label 0

Enquiry: API: above_or_equal(metric=PBM binding z-score, cutoff=-0.03) for item `ATATGTAGGTTACATCCGGCTCATTCAGGCTATG`
Return: label 1

Enquiry: I'd appreciate it if you could say whether `CCGAGTAGGTTATGGGGCATTCACGCAACGGTGA` has PBM binding z-score at least equal to -0.03.
Return: label 1

Enquiry: In plain terms: is recorded PBM binding z-score at least -0.03 for `GCTTACGGGTCAAAGGTTTTAGCATGAATAGAAT` ?
Return: label 0

Enquiry: Decide: is the reported value of PBM binding z-score for `ATACCAAGATGATCGTGAGGTCGTTGATACTAAC` equal to or greater than -0.03?
Return: label 1

Enquiry: Test whether the sequence `GTACCAAGGTGAATAGATCGTTGATGAGTAGGCG` records PBM binding z-score of -0.03 or higher.
Return: label 1

* * *

The following sequences are listed with their measured PBM binding z-score values.
- System: THRa homodimer (NR concentration 90 nM)
- Procedure details: PBM binding z-score (relative to random genomic background probes); higher = stronger binding; sequences stand for … in GC…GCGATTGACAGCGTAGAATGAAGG
Reply briefly: the number, and no unit.

Answered cases to consult:
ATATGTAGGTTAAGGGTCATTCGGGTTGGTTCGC : 1.95
AGAACGAGAGCAATGAGTTGATAGCACGGGTGGC : -1.05
ATCTCTAGCTAAAGATAGTTCAGTGAATGCAAAT : -0.112
TCTGCTAGGTCAGATGGTCAGCTAACGAGCTGCC : -0.192
CCTTACGGGTCACTCACAGGTTATAGCATTTGGA : 0.529
CGAACTGGGTCAAGGACAGTGAATCTCCGCACGC : 1.56
GATGCTAGGTCAACTGATGGTCAGCTAAAGCTCG : 0.992
CGAACTAGGTCCAGGACAGTGAATCTCCGCACGC : 0.778

Enquiry: Returns the measured PBM binding z-score for the input sequence. Input: `ATATGTAGGCTAAGGGTCATTCAGGTTGGTTCGC`
Return: 1.17

Enquiry: Can you look up the measured PBM binding z-score of `CAAACTAGGTCTCCGGAAGGTCAAAGTCCGCATG` for me?
Return: 1.4

Enquiry: Please give the measured PBM binding z-score for this sequence: `TCTTGTAGATCAGCAGGCTAAGAAAGCTGGCCAA`
Return: -1.21

Enquiry: // query PBM binding z-score value for entry `TCTATTAGTTGAAGGGTAACCGACGAGTCCGTTT`
Return: 0.529

Enquiry: Quick one: PBM binding z-score for `TCAATGAGGTTATAAGATCAGGGAACGTTGCAAA` ?
Return: 0.0539

Enquiry: Please look up its PBM binding z-score: `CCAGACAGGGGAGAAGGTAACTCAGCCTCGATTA`
Return: -0.17

Enquiry: Look up PBM binding z-score for this sequence: `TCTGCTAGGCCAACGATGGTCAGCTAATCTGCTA`
Return: -1.26

* * *

Here the recorded PBM binding z-score is given for each entry.
- Tested on: PXR:RXRa (NR concentration 270 nM, RXRa partner concentration 90 nM)
- Procedure details: PBM binding z-score (relative to random genomic background probes); higher = stronger binding; sequences stand for … in GC…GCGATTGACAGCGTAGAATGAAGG
Give your answer as a number; write no unit.

ACTCAGAGGACAAAGGTCAGAGCTACGCCAGTGA : 4.07
TCGAGTAGGTTACCAATGGGGCCTTCAGCTTTCT : -0.289
GTACCAAGTTGAATAGGTCGTTGATGAGTAGGCG : 0.225
CCGAGTAGGTTAGGGGGCATTCAGGCAACGGTGA : 2.19
AGAATGAGGTTATTGAGATCAGGGAATTGCGGTC : 1.57

# evaluate next
Enquiry: Dear colleague, I am looking for the recorded PBM binding z-score of the following sequence: `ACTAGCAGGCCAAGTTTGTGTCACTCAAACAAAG`
Return: -0.323

* * *

- Tested on: RXRa homodimer (NR concentration 180 nM)
- Procedure details: PBM binding z-score (relative to random genomic background probes); higher = stronger binding; sequences stand for … in GC…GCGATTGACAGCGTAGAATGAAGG
Endpoint label: PBM binding z-score
Answer with the value's number alone.

Here's what some known entries look like.
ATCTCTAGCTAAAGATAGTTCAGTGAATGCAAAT : 0.159
CCTTACGGGTCACTCCTGGTTATAGCATCGGAGT : 3.9
GTACCAAGGTGAATAGGTCGTTGACGAGTAGGCG : 2.19
TGAATGAGGTTAAAGATCAGGCAACGTGGCGTCG : 3.63
CAAACTAGGTCACCGGAAGGTCTAAGTCCGCATG : 3.87

Let's switch to this sequence now.
Enquiry: // lookup PBM binding z-score for `CTCGAAAAGTCGGTTGAGGTGAGTATACGGATAA`
Return: 0.212

* * *

Reported values of PBM binding z-score for individual entries
- Tested on: RARa:RXR (NR concentration 270 nM, RXRa partner concentration 90 nM)
- Procedure details: PBM binding z-score (relative to random genomic background probes); higher = stronger binding; sequences stand for … in GC…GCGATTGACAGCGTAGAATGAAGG
# print the numeric value only

Answered examples (3):
AACGAAAGGTCGTGAGGTGAGTATACAGAAAGGC : 4.22
CCAGACAGGTGAGAAGGTAACTCATCCTCGATTA : 0.525
TTACCAAGGTGAGCTGAGGTCGTTGTTCCAACTC : 2.16

Enquiry: What value of measured PBM binding z-score is listed for `TCTAGTTGGTCAAAGGTGACACACTCGAAATGCG` ?
Return: 2.88

* * *

- Tested on: PPARg DBDmut:RXRa IVT, anti-PPARg (DBD mutation: PPARg1 K132A/R137A, NR concentration 270 nM, RXRa partner concentration 90 nM)
- Procedure details: PBM binding z-score (relative to random genomic background probes); higher = stronger binding; sequences stand for … in GC…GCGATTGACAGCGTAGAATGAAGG
Note to self: class labels come from recorded PBM binding z-score, ranges listed here: range A = under 0.1, range B = from 0.1 up to 1, range C = 1 and over

These solved cases illustrate the format of a correct answer.
CGAACTAGGTCATTGACATGACAGTGAATAGTAA : range C
AGAATGAGGTTATACGTAGATCAGGAAAGAAAGT : range C
ATCTCTAGGAAAAGTTCAGTGAAAGATCGATAGA : range C
CGAACTAGGTCAAAACAGGACAGTGAAGGATGAT : range C
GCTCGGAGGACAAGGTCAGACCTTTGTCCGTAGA : range A

Enquiry: Which PBM binding z-score band matches `GCAGACAGGTGAAACGCAGGTAACCCAGGGTGGC` ?
Return: range A

Enquiry: Hey, which category is `TCTTGTAGATCAAAGGTTAAGAATGCCGAAGCCT` in, do you know?
Return: range C

Enquiry: Looking at `TCTTGCAGATCAACAGGAGGTTAAGAAAGATCGA` , which class would you pick?
Return: range B

Enquiry: State the band of `CATACAGGGTCAGCTAGGCAAGAGTAGGGACGGC`
Return: range B

Enquiry: Which class holds `TCATATAGGTAAACAGGTGAAAGTTCGTAAGTTA` ?
Return: range C

Enquiry: Exercise: read the entry `TCTTGTAGATCAGCAGGTTAAGCAAGCTGGCCAA` and state which class it falls under.
Return: range A

* * *

- Test system: PPARg:RXRa (NR concentration 180 nM, RXRa partner concentration 90 nM)
- Procedure details: PBM binding z-score (relative to random genomic background probes); higher = stronger binding; sequences stand for … in GC…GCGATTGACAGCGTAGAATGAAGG
Endpoint label: PBM binding z-score
No unit in the answer, only the number.

Solved cases (3 shown):
TTACCATGGTGAAAGGTCGTTGATGCACGCCTTG : 5.88
CGACCAAGGTCAAGGTCAGTGAAAGAGACTCGAA : 6.71
ATCTCTAGGTAACCAAGATCAGTGAATGCCGAAC : 0.694

Enquiry: Entry `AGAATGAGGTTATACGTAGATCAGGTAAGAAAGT` : reported PBM binding z-score = ?
Return: 2.14

Enquiry: Suppose we examine the sequence `CCGAGTAGGTTATGGGGCCTTCAGGCAACGGTGA` ; what PBM binding z-score value has been reported?
Return: 1.43

Enquiry: What does the record list as PBM binding z-score for `TGAATGAGGTAATAAGATCAGGGAACGTTGCAAA` ?
Return: 0.563

Values from the supplement of paper PMC6555819
